test system: CAKI-1 renal; assay: NCI-60 one-dose screen, 48 h (100 = growth as untreated, 0 = no growth, -100 = all killed); details: 10 µM unless noted
Compounds without any hit were thinned out: in the full panel of roughly 83,000, 20% have a hit. Activity calls are given as the source filed them. Rule for the calls: active = growth percent below 10; inactive = the rest.
Give growth for every item shown.

Qu. Give recorded growth. "O=S(=O)(NCCNc1nccc(-c2c(-c3cccc(F)c3)nc3sccn23)n1)c1ccccc1"
Ans. 39.1% (inactive)

Qu. Return growth (reported value) for this molecule: O=C(/C(=C\c1ccc([N+](=O)[O-])cc1)S(=O)Cc1ccc(F)cc1)c1ccc(F)cc1 (centres undefined)
Ans. 44.3% (inactive)

Qu. Identify the reported growth for the following entry. "CCOC(=O)CSc1nc2ccccc2c(=O)n1Cc1ccc(S(N)(=O)=O)cc1"
Ans. 91.3% (inactive)

Qu. Note growth for the molecule shown: "CCCCNC(=O)Oc1ccc(/C(=C(\C)c2ccccc2)c2ccc(OCCN3CCCCC3)cc2)cc1"
Ans. 46.9% (inactive)

Qu. Look up and report measured growth for this entry: "CCNC(=O)Oc1ccc(/C(=C(\C)c2ccccc2)c2ccc(OCCN(CC)CC)cc2)cc1"
Ans. 59.3% (inactive)

Qu. Tell us which growth value is on record for "COc1cc(/C(C)=C(\c2ccc(Cl)cc2)c2ccc(OCCN(C)C)cc2)ccc1F"
Ans. 62.7% (inactive)

Qu. Please report growth for the following molecule: "NNC(=O)c1ccc(-n2nc(-c3ccccc3)c3ccccc32)cc1"
Ans. 76.5% (inactive)

Qu. Specify measured growth for "COc1ccccc1/C=C1\Oc2cc(OCCN3CCCC3)ccc2C1=O" .
Ans. 94.3% (inactive)

Qu. Indicate its recorded growth; the molecule in question is "COc1cc2c(c(O)c1Br)C(=O)c1c(O)cc(C[C@H](C)O)cc1[C@H]2[C@H]1c2cc(C[C@H](C)O)cc(O)c2C(=O)c2c1cc(OC)c(Br)c2O"
Ans. 4.31% (active)

----------
test system: DU-145 prostate; assay: NCI-60 one-dose screen, 48 h; conditions: 10 µM unless noted
The panel holds about 83,000 compounds, 20% with a hit somewhere; the sample as a whole holds those more often. Calls of active or inactive are those of the source. Rule for the calls: active = growth percent below 10; inactive = the rest.
Result category, one only: Yes = active, No = inactive

Qu. So what was the verdict on "N#C/C(=C\c1ccc([N+](=O)[O-])s1)c1nc2cc(Br)ccc2s1" in this test?
Ans. No

Qu. Please let me know the test result on file for "COc1ccc(CNCCN2C(=O)c3ccc4c5c(ccc(c35)C2=O)C(=O)N(CCNCc2ccc(OC)c(OC)c2OC)C4=O)c(OC)c1OC" .
Ans. Yes

Qu. Recorded test call requested for "O=C(Nc1ccccc1C(=O)N/N=C(\c1ccccc1)c1ccccn1)c1ccc(F)cc1"
Ans. No

Qu. Status in this test for OC(c1cccc(C(F)(F)F)c1)c1cnccc1NC1CCCCC1 (centres undefined) ?
Ans. No

Qu. Please indicate how the test categorized N#CC(C(=O)/C(=N/NC(=O)c1ccccc1O)C(C#N)c1ccccc1)c1ccccc1 (centres undefined) .
Ans. No

Qu. Fill in: this test's call for Cc1ccc(NC(C(=O)c2ccccc2)c2ccccc2)cc1 (centres undefined) is ___
Ans. No

Qu. What call does the record list for "Cc1ccccc1NS(=O)(=O)c1cccc(C(=O)Nc2ccc(Br)cc2)c1" ?
Ans. No

Qu. Kindly provide the recorded test outcome for the following molecule: CC1(C)CC(=O)C2=C(C1)N(c1ccc(F)cc1F)C(N)=C(C#N)C2c1cc(Br)ccc1F (centres undefined)
Ans. No

Qu. How was "CCOC(=O)c1cc(C(=O)c2ccc(OC)cc2)n2ccc(/C=C/c3cc[n+](CC(=O)c4ccc(OC)cc4)cc3)cc12" classified in this test?
Ans. No
